Listed next: entries and their corresponding IC50.
Biological target: ERK1 (Homo sapiens, UniProt P27361)
Construct: purchased Jubilant Biosys
Sequence (P27361 whole entry): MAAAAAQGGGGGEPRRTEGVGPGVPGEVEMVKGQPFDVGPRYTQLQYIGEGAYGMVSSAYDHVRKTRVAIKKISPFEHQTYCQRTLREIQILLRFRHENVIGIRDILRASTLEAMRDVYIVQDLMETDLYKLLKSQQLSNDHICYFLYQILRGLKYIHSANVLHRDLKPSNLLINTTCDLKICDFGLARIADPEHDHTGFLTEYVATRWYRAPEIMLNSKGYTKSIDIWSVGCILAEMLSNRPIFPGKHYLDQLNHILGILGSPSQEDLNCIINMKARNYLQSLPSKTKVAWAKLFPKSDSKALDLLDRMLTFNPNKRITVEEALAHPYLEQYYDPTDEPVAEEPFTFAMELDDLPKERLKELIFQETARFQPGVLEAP
Test: ERK1 HTRF (biochemical) assay
Conditions: HTRF
Readout: IC50

compound="Cc1cnc(Nc2ccc(F)cc2Cl)nc1-n1ccc(C(=O)NC(CO)c2ccccc2)c1 (stereo not shown)" reported_value="< 50 nM"
compound="Cc1cnc(Nc2ccc(N3CCOCC3)cc2)nc1-n1ccc(C(=O)NC(CO)c2cccc(Cl)c2)c1 (stereo not shown)" reported_value="< 50 nM"
compound=Cc1cnc(NC2CCOCC2)nc1-n1cnc(C(=O)NCc2ccccc2CN)c1 reported_value="< 50 nM"
compound=O=C(Nc1cnn(-c2ccnc(Nc3ccc(F)cc3Cl)n2)c1)N[C@H](CO)c1cccc(Cl)c1 reported_value="< 50 nM"
compound="Cc1cc(Nc2ncc(C)c(-n3ccc(C(=O)NC(CO)c4cccc(Cl)c4)c3)n2)ccc1C1CCNCC1 (stereo not shown)" reported_value="< 50 nM"
compound="COc1ccc(Nc2ncc(C)c(-n3ccc(C(=O)NC(CO)c4cccc(Cl)c4)c3)n2)cc1OCCCN(C)C (stereo not shown)" reported_value="< 50 nM"
compound="CC(NC(=O)Nc1cnn(-c2ccnc(Nc3ccccc3Cl)n2)c1)c1cccc(Cl)c1 (stereo not shown)" reported_value="100 to 500 nM"
compound=O=C(Nc1cnn(-c2ccnc(NC3CC3)n2)c1)N[C@H](CO)c1cccc(Cl)c1 reported_value="< 50 nM"
compound="COc1c(F)cccc1Nc1ncc(C)c(-n2ccc(C(=O)NC(CO)c3cccc(Cl)c3)c2)n1 (stereo not shown)" reported_value="< 50 nM"
compound=Cc1cnc(Nc2ccc(F)cc2Cl)nc1-n1cnc(C(=O)N[C@H](CO)c2cccc(Cl)c2)c1 reported_value="< 50 nM"
compound=Cc1cnc(Nc2ccc3c(c2)OCO3)nc1-n1ccc(C(=O)N[C@H](CO)Cc2ccccc2)c1 reported_value="50 to 100 nM"
compound=Cc1cnc(NC2CCOCC2)nc1-n1cnc(C(=O)NCc2cccc(Cl)c2CO)c1 reported_value="< 50 nM"
compound="Cc1cnc(NC2CCOC2)cc1-n1ccc(C(=O)NC(CO)c2cccc(Cl)c2)c1 (stereo not shown)" reported_value="< 50 nM"
compound="Cc1cnc(NC2CCNCC2)nc1-n1cnc(C(=O)NC(CO)c2cccc(Cl)c2)c1 (stereo not shown)" reported_value="< 50 nM"
compound=Cc1cnc(Nc2ccc3c(c2)OCO3)nc1-n1cc(NC(=O)N[C@H](CO)c2ccccc2)cn1 reported_value="50 to 100 nM"
compound="Cc1cnc(Nc2ccc(N3CCC(N4CCNCC4)CC3)cc2)nc1-n1ccc(C(=O)NC(CO)c2ccccc2)c1 (stereo not shown)" reported_value="100 to 500 nM"
compound=Cc1cnc(NC2CC(F)(F)C2)nc1-n1cnc(C(=O)N[C@H](CN)c2cc(F)cc(Cl)c2)c1 reported_value="< 50 nM"
compound="Cc1cnc(NC2CCOC2)nc1-n1ccc(C(=O)NC(CO)c2ccccc2)c1 (stereo not shown)" reported_value="< 50 nM"
compound="Cc1cnc(NC2CCOCC2)nc1-n1cnc(C(=O)NC(CO)c2cccc(C(F)(F)F)c2)c1 (stereo not shown)" reported_value="< 50 nM"
compound=Cc1cnc(Nc2ccc3c(c2)OCO3)nc1-n1cnc(C(=O)N[C@H](CN)c2cccc(Cl)c2)c1 reported_value="< 50 nM"
compound="COc1cc(Nc2ncc(C)c(-n3ccc(C(=O)NC(CO)c4ccccc4)c3)n2)cc(OC)c1OC (stereo not shown)" reported_value="< 50 nM"
compound="O=C(NC(CO)c1cccc(Cl)c1)c1ccn(-c2cc(Nc3ccccc3)ncc2Cl)c1 (stereo not shown)" reported_value="< 50 nM"
compound="COc1cc(C(=O)N2CCOCC2)c(F)cc1Nc1ncc(C)c(-n2ccc(C(=O)NC(CO)c3cccc(Cl)c3)c2)n1 (stereo not shown)" reported_value="< 50 nM"
compound="Cc1cnc(NC2CCOCC2)nc1-n1cnc(C(=O)NCc2ccccc2CCO)c1 [Compound 94]" reported_value="< 50 nM"
compound=CN1CCN(c2ccc(Nc3nccc(-n4cc(NC(=O)N[C@H](CO)c5cccc(Cl)c5)cn4)n3)cc2)CC1 reported_value="100 to 500 nM"
compound="Cc1cnc(Nc2cccnc2)cc1-n1ccc(C(=O)NC(CO)c2ccc(F)c(Cl)c2)c1 (stereo not shown)" reported_value="< 50 nM"
compound="Cc1cnc(Nc2ccc3c(c2)CC(=O)N3)nc1-n1ccc(C(=O)NC(CO)c2cccc(Cl)c2)c1 (stereo not shown)" reported_value="< 50 nM"
compound="O=C(N[C@H](CO)c1cccc(Cl)c1)c1ccn(-c2ccnc(NC3CCOC3)c2)c1 (stereo partly shown)" reported_value="100 to 500 nM"
compound="Cc1cnc(Nc2ccc(F)cc2Cl)nc1-n1cc(C(=O)NC(CN)c2ccccc2)cn1 (stereo not shown)" reported_value="50 to 100 nM"
compound="CC[C@@H](CO)Nc1ncc(C)c(-n2ccc(C(=O)NC(CO)c3cccc(Cl)c3)c2)n1 (stereo partly shown)" reported_value="< 50 nM"
compound="COc1cnc(Nc2ccc(F)cc2Cl)nc1-n1ccc(C(=O)NC(CO)c2ccccc2)c1 (stereo not shown)" reported_value="< 50 nM"
